# target-or-system: Peptide 1: Biotin-…-[Tyr(PC)]-acid
# Sequence (peptide, as listed by the source): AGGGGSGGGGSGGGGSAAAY
# assay-info: scFv ELISA
measured-parameter: OD450 (OD450)
Value expressed in OD450; do not type the unit.

{"binder": "PcOxP_DB02_F07 (scFv, V domains shown, scFv in periplasmic extract) VH: EVQLLESGGGLVQPGGSLRLSCAASGFWFSDFYMEWVRQAPGKGLEWVAASRNKANDYTTEYADSVKGRFTISRDNSKNTLYLQMNSLRAEDTAVYYCARDYYGSSYWYFDVWGQGTLVTVSS VL: DIQMTQSPSSLSASVGDRVTITCTASQSLYSSKNKVHYLAWYQQKPGKAPKLLIYGESNRYIGVPSRFSGSGSGTDFTLTISSLQPEDFATYYCAQFYSYPLTFGGGTKVEIK", "OD450, OD450": 0.43}
{"binder": "PcOxP_DB01_D09 (scFv, V domains shown, scFv in periplasmic extract) VH: EVQLLESGGGLVQPGGSLRLSCAASGFTESDFYMEWVRQAPGKGLEWVAASRNKANDYTTEYADSVKGRFTISRDNSKNTLYLQMNSLRAEDTAVYYCARDYYGSSYWYFDVWGQGTLVTVSS VL: DIQMTQSPSSLSASVGDRVTITCTASESLYSAKHKVHYLAWYQQKPGKAPKLLIYGSSNRYIGVPSRFSGSGSGTDFTLTISSLQPEDFATYYCAQFYDYPLTFGGGTKVEIK", "OD450, OD450": 0.27}
{"binder": "PcOxP_DB03_C11 (scFv, V domains shown, scFv in periplasmic extract) VH: EVQLLESGGGLVQPGGSLRLSCAASGFDFSDFYMEWVRQAPGKGLEWVAASRNKANDYTTDYADSVKGRFTISRDNSKNTLYLQMNSLRAEDTAVYYCARDYFGSSYWYFDVWGQGTLVTVSS VL: DIQMTQSPSSLSASVGDRVTITCTASESLYSSKHKVHYLAWYQQKPGKAPKLLIYGASNRYQGVPSRFSGSGSGTDFTLTISSLQPEDFATYYCAQFYFYPLTFGGGTKVEIK", "OD450, OD450": 1.14}
{"binder": "PcOxP_DB01_C12 (scFv, V domains shown, scFv in periplasmic extract) VH: EVQLLESGGGLVQPGGSLRLSCAASGFTFSDFYMEWVRQAPGKGLEWVAASRNKANDYTTELADSVKGRFTISRDNSKNTLYLQMNSLRAEDTAVYYCARDYYGSSYWYFDVWGQGTLVTVSS VL: DIQMTQSPSSLSASVGDRVTITCTASESLYSSKHKVHYLAWYQQKPGKAPKLLIYGAANRYIGVPSRFSGSGSGTDFTLTISSLQPEDFATYYCAQFYVYPLTFGGGTKVEIK", "OD450, OD450": 0.88}

Let us examine a further case.
Please look up its OD450: PcOxP_DB04_D07 (scFv, V domains shown, scFv in periplasmic extract) VH: EVQLLESGGGLVQPGGSLRLSCAASGFTFSDYYMEWVRQAPGKGLEWVAASRWKANDYTTEYADSVKGRFTISRDNSKNTLYLQMNSLRAEDTAVYYCARDYYGSSYWYFDVWGQGTLVTVSS VL: DIVMTQSPDSLAVSLGERATINCTASESLYSSKHKVHYLAWYQQKPGQPPKLLIYGASNRYIGVPDRFSGSGSGTDFTLTISSLQAEDVAVYYCAQFYTYPLTFGGGTKVEIK
1.02
